Assay System: human VWF (human)
Sequence (P04275 whole entry): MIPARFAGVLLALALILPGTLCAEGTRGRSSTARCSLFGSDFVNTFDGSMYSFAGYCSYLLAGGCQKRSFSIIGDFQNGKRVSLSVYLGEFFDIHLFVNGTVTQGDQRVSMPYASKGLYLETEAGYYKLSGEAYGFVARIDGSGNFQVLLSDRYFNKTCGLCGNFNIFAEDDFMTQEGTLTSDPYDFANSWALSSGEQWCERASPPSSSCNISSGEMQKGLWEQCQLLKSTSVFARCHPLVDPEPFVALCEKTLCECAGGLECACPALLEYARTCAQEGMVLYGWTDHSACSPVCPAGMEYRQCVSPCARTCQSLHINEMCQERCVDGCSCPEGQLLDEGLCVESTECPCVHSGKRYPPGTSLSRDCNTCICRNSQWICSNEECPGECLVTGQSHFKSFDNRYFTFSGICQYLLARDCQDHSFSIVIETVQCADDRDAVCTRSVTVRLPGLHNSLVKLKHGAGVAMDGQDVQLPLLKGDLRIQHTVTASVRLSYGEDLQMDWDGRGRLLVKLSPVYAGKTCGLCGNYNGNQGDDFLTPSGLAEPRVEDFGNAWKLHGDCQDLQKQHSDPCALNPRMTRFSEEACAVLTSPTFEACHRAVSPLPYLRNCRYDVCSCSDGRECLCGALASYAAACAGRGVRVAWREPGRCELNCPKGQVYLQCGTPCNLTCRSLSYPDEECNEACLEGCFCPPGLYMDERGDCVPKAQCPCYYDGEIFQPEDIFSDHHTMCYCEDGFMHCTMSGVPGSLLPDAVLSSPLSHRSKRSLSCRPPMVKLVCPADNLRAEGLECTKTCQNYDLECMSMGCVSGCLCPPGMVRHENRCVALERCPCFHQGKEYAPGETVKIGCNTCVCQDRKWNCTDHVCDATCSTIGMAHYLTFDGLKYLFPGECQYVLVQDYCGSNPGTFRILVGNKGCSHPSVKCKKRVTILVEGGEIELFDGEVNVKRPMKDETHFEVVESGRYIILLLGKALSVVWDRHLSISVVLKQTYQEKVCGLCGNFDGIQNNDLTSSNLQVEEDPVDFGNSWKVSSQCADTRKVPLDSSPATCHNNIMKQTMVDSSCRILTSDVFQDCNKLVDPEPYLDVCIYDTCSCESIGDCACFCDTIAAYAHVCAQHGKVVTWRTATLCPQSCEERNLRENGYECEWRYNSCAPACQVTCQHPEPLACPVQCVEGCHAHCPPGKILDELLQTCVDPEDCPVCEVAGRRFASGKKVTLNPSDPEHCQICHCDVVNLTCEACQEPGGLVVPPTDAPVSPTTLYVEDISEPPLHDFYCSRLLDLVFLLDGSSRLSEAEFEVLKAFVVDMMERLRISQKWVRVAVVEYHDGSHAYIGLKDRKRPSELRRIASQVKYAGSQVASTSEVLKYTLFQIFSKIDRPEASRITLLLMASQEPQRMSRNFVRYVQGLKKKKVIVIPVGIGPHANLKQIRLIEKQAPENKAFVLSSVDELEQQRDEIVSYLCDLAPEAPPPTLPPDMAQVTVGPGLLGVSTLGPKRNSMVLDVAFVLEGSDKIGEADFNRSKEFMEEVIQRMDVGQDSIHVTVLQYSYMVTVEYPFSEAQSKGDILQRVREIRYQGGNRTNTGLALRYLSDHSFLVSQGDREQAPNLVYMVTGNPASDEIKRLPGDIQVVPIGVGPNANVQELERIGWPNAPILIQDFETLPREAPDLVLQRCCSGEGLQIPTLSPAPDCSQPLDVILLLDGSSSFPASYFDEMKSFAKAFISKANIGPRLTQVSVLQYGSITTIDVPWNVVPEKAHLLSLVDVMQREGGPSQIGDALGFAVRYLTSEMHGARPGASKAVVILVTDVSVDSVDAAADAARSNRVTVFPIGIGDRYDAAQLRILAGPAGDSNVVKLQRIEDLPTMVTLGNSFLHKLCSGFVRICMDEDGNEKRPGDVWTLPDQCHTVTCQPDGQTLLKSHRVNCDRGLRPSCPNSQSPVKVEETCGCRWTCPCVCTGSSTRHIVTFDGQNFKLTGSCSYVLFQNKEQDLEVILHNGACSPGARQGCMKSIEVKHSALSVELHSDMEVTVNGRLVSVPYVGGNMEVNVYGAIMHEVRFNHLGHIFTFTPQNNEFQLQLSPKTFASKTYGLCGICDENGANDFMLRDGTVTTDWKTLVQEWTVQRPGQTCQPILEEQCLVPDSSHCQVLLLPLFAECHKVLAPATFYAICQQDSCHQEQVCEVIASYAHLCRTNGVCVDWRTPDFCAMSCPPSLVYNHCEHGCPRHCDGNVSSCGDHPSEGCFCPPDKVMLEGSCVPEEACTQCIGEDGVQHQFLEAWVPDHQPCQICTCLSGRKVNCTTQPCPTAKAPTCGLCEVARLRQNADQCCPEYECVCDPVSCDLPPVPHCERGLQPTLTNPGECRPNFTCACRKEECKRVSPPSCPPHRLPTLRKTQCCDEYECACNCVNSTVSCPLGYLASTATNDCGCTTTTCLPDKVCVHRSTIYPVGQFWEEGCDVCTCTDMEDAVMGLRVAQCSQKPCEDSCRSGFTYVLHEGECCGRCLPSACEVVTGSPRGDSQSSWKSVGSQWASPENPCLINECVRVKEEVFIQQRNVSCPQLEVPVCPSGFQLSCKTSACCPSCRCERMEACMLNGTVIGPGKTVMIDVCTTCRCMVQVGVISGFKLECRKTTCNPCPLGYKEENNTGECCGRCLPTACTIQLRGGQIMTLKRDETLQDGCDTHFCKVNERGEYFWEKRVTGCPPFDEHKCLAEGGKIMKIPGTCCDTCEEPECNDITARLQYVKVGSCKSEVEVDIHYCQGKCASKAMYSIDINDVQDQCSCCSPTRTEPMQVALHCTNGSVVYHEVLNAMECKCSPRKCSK
Assay Summary: ELISA
EC50 values for the binders below.
Give a bare numeral; the unit µg/mL is implied.

Examples with answers:
| Binder | Endpoint Name | Endpoint Result |
| --- | --- | --- |
| 25B05_H2-L3 (antibody, V domains shown) VH: QVQLVQSGAEVKKPGASVKVSCKASGYTFTDYFMNWVRQAPGQRLEWMGVINPHNGGTSYSQKFQGRVTITVDKSSSTAYMELSSLRSEDTAVYYCARRPLGSDYWGQGTTVTVSS VL: DIQMTQSPSSVSASVGDRVTITCKASQNVGTAVAWYQQKPGKAPKLLIYSASSRYTEVPDRFSGSGSGTDFTLTISSLQPEDFATYYCQQYSSYPLTFGQGTKLEIK | EC50 | 0.0416 |
| 33D03_H5-L1 (antibody, V domains shown) VH: EVQLVQSGAEVKKPGASVKVSCKASGYTFTDYYLNWVRQAPGQRLEWMGIINPYNGGTNYNQRFKGRVTLTVDKSSSTAYMELSSLRSEDTAVYYCASEGLRTWFTYWGQGTLVTVSS VL: DIVMTQSPDSLAVSLGERATINCKSSQSLSNSGNQKIYLAWYQQKPGQPPKLLIYGASSRESGVPDRFSGSGSGTDFTLTISSLQAEDVAVYYCQNDHSHPFTFGQGTKLEIK | EC50 | 0.0297 |
| 25B05_H1-L4 (antibody, V domains shown) VH: QVQLVQSGAEVKKPGASVKVSCKASGYTFTDYFMNWVRQAPGQRLEWMGVINPHNGGTSYSQKFQGRVTITRDTSASTAYMELSSLRSEDTAVYYCARRPLGSDYWGQGTTVTVSS VL: DIVMTQSPSSVSASVGDRVTITCKASQNVGTAVAWYQQKPGKAPKLLIYSASSRYTEVPDRFSGSGSGTDFTLTISSLQPEDFATYYCQQYSSYPLTFGQGTKLEIK | EC50 | 0.0344 |
| 33D03_H5-L2 (antibody, V domains shown) VH: EVQLVQSGAEVKKPGASVKVSCKASGYTFTDYYLNWVRQAPGQRLEWMGIINPYNGGTNYNQRFKGRVTLTVDKSSSTAYMELSSLRSEDTAVYYCASEGLRTWFTYWGQGTLVTVSS VL: DIVMTQSPDSLAVSLGERATISCKSSQSLSNSGNQKIYLAWYQQKPGQPPKLLIYGASSRESGVPDRFSGSGSGTDFTLTISSLQAEDVAVYYCQNDHSHPFTFGQGTKLEIK | EC50 | 0.0294 |

# context switch: different binder, same EC50
# input Would you kindly share the measured EC50 for 25B05_H4-L2 (antibody, V domains shown) VH: EVQLVQSGAEVKKPGASVKVSCKASGYTFTDYFMNWVRQAPGQRLEWMGVINPHNGGTSYSQKFQGRVTLTVDKSSSTAYMELSSLRSEDTAVYYCARRPLGSDYWGQGTTVTVSS VL: DIVMTQSPSSVSASVGDRVTITCKASQNVGTAVAWYQQKPGKAPKLLIYSASSRYTGVPSRFSGSGSGTDFTLTISSLQPEDFATYYCQQYSSYPLTFGQGTKLEIK ?
# output 0.0357
